Test system: Candida albicans
Assay remarks: microbe, parasite or virus in culture
Experimental conditions: HLY4123, 16 h
pEC50: −log10 of the molar value.
Assign met to entries whose pEC50 meets or exceeds 7; assign not met to the rest.

Reference set (7 entries):
COc1cc(C#CCCCO)ccc1-n1cc(C(=O)NCC(=O)NCCC2=CCCCC2)c2ccccc2c1=O = not met
COc1cc(Br)ccc1-n1cc(C(=O)N[C@@H](CCCCNC(=O)OCc2ccccc2Cl)C(=O)NCCC2=CCCCC2)c2ccccc2c1=O = met
COc1cc(Br)ccc1-n1cc(C(=O)NCC(=O)NCCc2ccccc2)c2ccccc2c1=O = met
COc1cc(Br)ccc1-n1cc(C(=O)NCC(=O)NCCC2=CCCCC2)c2sccc2c1=O = not met
COc1ccc(-n2cc(C(=O)NCC(=O)NCCC3=CCCCC3)c3ccccc3c2=O)c(OC)c1 = met
COc1cc(Br)ccc1-n1cc(C(=O)NCCc2ccccc2)c2ccccc2c1=O = not met
COc1cc(Br)ccc1-n1cc(C(=O)NCC(=O)NCCC2=CCCCC2)c2occc2c1=O = not met

Now look at this entry.
Prompt line: For this compound, is measured pEC50 7 or higher? COc1ccc(-n2nc(C(=O)NCC(=O)NCCC3=CCCCC3)c3ccccc3c2=O)c(OC)c1
Response line: met

Where do these numbers come from? They come from ChEMBL document CHEMBL3875229.
